# Protocol details: NCI Yeast Anticancer Drug Screen. Data for the mlh1 rad18 strain (AID 175)
# Conditions: S. cerevisiae mlh1 rad18 strain growth inhibition, active compounds read high; at 50.0 µM unless noted
About 79,000 compounds went through this panel and 15% of them were active in at least one assay; those are over-represented in the sample as a whole. Active and inactive are the calls of the source. Cut-off read from the data, not from the text of the source: active = growth inhibition above about 70%; inactive = the rest.
Attribute measured: growth inhibition

INPUT: Which value of growth inhibition has been reported for COC(=O)OCCOC(=O)OC in the records?
OUTPUT: 9.5% (inactive)

INPUT: Which value of growth inhibition has been reported for CS(=O)(=O)CS(C)(=O)=O in the records?
OUTPUT: 27.9% (inactive)

INPUT: Which value of growth inhibition has been reported for Cc1c(Cl)cccc1C(=O)O in the records?
OUTPUT: 27.6% (inactive)

INPUT: Which value of growth inhibition has been reported for O=C1CCCc2[nH]ccc21 in the records?
OUTPUT: -4.55% (inactive)

INPUT: Which value of growth inhibition has been reported for COc1cc(CC(=O)C(=O)O)ccc1O in the records?
OUTPUT: -1.95% (inactive)

INPUT: Which value of growth inhibition has been reported for Cc1ccc([N+](=O)[O-])cc1NC(=O)Oc1ccc(Cl)cc1Cl in the records?
OUTPUT: -13.3% (inactive)

INPUT: Which value of growth inhibition has been reported for O=C(O)c1ccccc1S(=O)Cc1ccc(Br)cc1 (configuration not stated) in the records?
OUTPUT: 3.5% (inactive)

---

# Protocol details: NCI Yeast Anticancer Drug Screen. Data for the mec2-1 strain (AID 157)
# Conditions: S. cerevisiae mec2-1 strain, active compounds read high; at 50.0 µM unless noted
About 79,000 compounds went through this panel and 15% of them were active in at least one assay; those are over-represented in the sample as a whole.
Attribute measured: growth inhibition (%)
Report the figure in % without appending any unit label.

INPUT: Which value of growth inhibition has been reported for COC(=O)c1cc2ccc(OC(C)=O)c(OC(C)=O)c2cn1 in the records?
OUTPUT: -20.2

INPUT: Which value of growth inhibition has been reported for C=C(C)CC(=O)O.CC(=O)[CH-]C(C)=O.CC(=O)[CH-]C(C)=O.CC(=O)[CH-]C(C)=O.[Zn+2].[Zn] in the records?
OUTPUT: 10.8

INPUT: Which value of growth inhibition has been reported for CC(=O)N(C)c1ccc(NC(=O)C2CCCCC2C(=O)O)cc1 (stereo unspecified) in the records?
OUTPUT: 8.6

INPUT: Which value of growth inhibition has been reported for O=C(O)c1ccc([N+](=O)[O-])cc1Br in the records?
OUTPUT: -2.85

INPUT: Which value of growth inhibition has been reported for CCOC(=O)N/N=C/c1ccccc1C in the records?
OUTPUT: -3.15

INPUT: Which value of growth inhibition has been reported for CC(=O)OCCOCNC(=S)N/N=C(\C)c1ccco1 in the records?
OUTPUT: -8.3

INPUT: Which value of growth inhibition has been reported for CC(=O)OCC1OC(n2c(Br)nc3c(=O)[nH]c(N)nc32)C(OC(C)=O)C1OC(C)=O (stereo unspecified) in the records?
OUTPUT: 4.3

INPUT: Which value of growth inhibition has been reported for N#C/C(=C\c1ccc(Cl)cc1Cl)C(=O)N/N=C/c1ccc(Cl)cc1Cl in the records?
OUTPUT: 37.8

INPUT: Which value of growth inhibition has been reported for COC(=O)C1Cc2c([nH]c3ccccc23)C=N1 (stereo unspecified) in the records?
OUTPUT: 31.2

INPUT: Which value of growth inhibition has been reported for Clc1ccc(OCC(COc2ccccc2)Oc2nc(-c3ccccc3)nc(-c3ccccc3)n2)cc1 (stereo unspecified) in the records?
OUTPUT: 2.25

INPUT: Which value of growth inhibition has been reported for C[N+]1(CCN[N+]2(C)CCCCC2)CCc2ccccc2C1 (stereo unspecified) in the records?
OUTPUT: -14.7

---

# Protocol details: NCI Yeast Anticancer Drug Screen. Data for the sgs1 mgt1 strain (AID 161);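 note: 0% = growth of cultures given vehicle only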
# Conditions: S. cerevisiae sgs1 mgt1 strain, active compounds read high; at 50.0 µM unless noted
About 79,000 compounds went through this panel and 15% of them were active in at least one assay; those are over-represented in the sample as a whole.
Is growth inhibition at least 10%? Then Yes. If not, No.

INPUT: Determine whether measured growth inhibition meets or exceeds 10% for O=C(CCl)Oc1ccc2ccccc2c1
OUTPUT: No

INPUT: Determine whether measured growth inhibition meets or exceeds 10% for CC1=CC(=C2C=C(C)C(=O)C(C)=C2)C=C(C)C1=O
OUTPUT: Yes

INPUT: Determine whether measured growth inhibition meets or exceeds 10% for S=c1[nH]c2ccccc2c(=S)n1CN1CCCCC1
OUTPUT: No

INPUT: Determine whether measured growth inhibition meets or exceeds 10% for Cc1cc2nc3c4ccccc4scc-3c2cc1C
OUTPUT: Yes

INPUT: Determine whether measured growth inhibition meets or exceeds 10% for COC(=O)C1CCCC1
OUTPUT: Yes

INPUT: Determine whether measured growth inhibition meets or exceeds 10% for CN(C)c1ccc(C=Nc2c(N)n(C)c(=O)n(C)c2=O)cc1
OUTPUT: No

INPUT: Determine whether measured growth inhibition meets or exceeds 10% for CC(C)(CO)NCC(C)(C)[N+](=O)[O-]
OUTPUT: Yes

---

Kindly supply the reported growth inhibition values for the records listed here.
# Protocol details: NCI Yeast Anticancer Drug Screen. Data for the mec2-1 strain (AID 157)
# Conditions: S. cerevisiae mec2-1 strain, active compounds read high; at 50.0 µM unless noted
This is part of a sample that, as a whole, favours compounds with a hit. Of some 79,000 tested, about 15% had one in any assay.
Report the figure in % without appending any unit label.

INPUT: Which value of growth inhibition has been reported for O=C(O)CN(CCCN(CC(=O)O)CC(=O)O)CC(=O)O in the records?
OUTPUT: 0.85

INPUT: Which value of growth inhibition has been reported for O=C(c1ccc(-c2ccccc2)cc1)C(O)c1ccc(-c2ccccc2)cc1 (configuration not stated) in the records?
OUTPUT: 0.4

INPUT: Which value of growth inhibition has been reported for CCCCCCOc1ccccc1CO in the records?
OUTPUT: 10.6

INPUT: Which value of growth inhibition has been reported for COC(=O)C(Cc1ccccc1)C(=O)C(CC(=O)OC(C)(C)C)NC(=O)OC(C)(C)C (configuration not stated) in the records?
OUTPUT: 1.15

INPUT: Which value of growth inhibition has been reported for COC(=O)c1nnn(-c2ccc(Cl)cc2C)c1C(=O)c1ccc(OC)cc1 in the records?
OUTPUT: 0.95

INPUT: Which value of growth inhibition has been reported for CC(C)CN(CC(C)C)C(=O)c1ccccc1 in the records?
OUTPUT: 8.2

INPUT: Which value of growth inhibition has been reported for CC(C)=CC1C(C(=O)Oc2ccccc2C(C)C)C1(C)C (configuration not stated) in the records?
OUTPUT: -11.2

INPUT: Which value of growth inhibition has been reported for CCOC(=O)/C(=C\c1ccccc1)c1ccccc1 in the records?
OUTPUT: 5.5

INPUT: Which value of growth inhibition has been reported for O=C(Nc1ccc(C(=O)O)cc1)Nc1cccc(Cl)c1 in the records?
OUTPUT: 2.1

INPUT: Which value of growth inhibition has been reported for CC1(C)CC(=O)C(/C=N/C(=S)Nc2ccc(S(N)(=O)=O)cc2)=C(O)C1 in the records?
OUTPUT: -68.5

INPUT: Which value of growth inhibition has been reported for CCCCCCC(=O)OCC(=O)c1ccc(Br)cc1 in the records?
OUTPUT: 28.2

INPUT: Which value of growth inhibition has been reported for CC12CC(=O)OC1(C)C1CCC2C1 (configuration not stated) in the records?
OUTPUT: 10.3

---

# Protocol details: NCI Yeast Anticancer Drug Screen. Data for the rad50 strain (AID 155);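 note: 0% = growth of vehicle-only cultures of the same strain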
# Conditions: S. cerevisiae rad50 strain growth inhibition, active compounds read high; at 50.0 µM unless noted
The panel holds about 79,000 compounds, 15% with a hit somewhere; the sample as a whole holds those more often.
Kindly supply the reported growth inhibition values for the records listed here.
Report the figure in % without appending any unit label.

INPUT: Which value of growth inhibition has been reported for Cc1c(CCCl)c(N=P(c2ccccc2)(c2ccccc2)c2ccccc2)n2c(nc3ccccc32)c1C#N in the records?
OUTPUT: 29.1

INPUT: Which value of growth inhibition has been reported for CCN(CCO)C(=O)Nc1ccc(Cl)cc1 in the records?
OUTPUT: -6.1

INPUT: Which value of growth inhibition has been reported for CCOC(OCC)C1(C)CC=CCC1 (stereo not given) in the records?
OUTPUT: 20.4

INPUT: Which value of growth inhibition has been reported for CCOC(=O)NC(=O)c1cn(CCCCCCCCCCC(=O)N2CCN(CCn3cc(C(=O)NC(=O)OCC)c(=O)[nH]c3=O)CC2)c(=O)[nH]c1=O in the records?
OUTPUT: 27.2

INPUT: Which value of growth inhibition has been reported for O=S1(=O)CCC12CC1c3ccccc3C2c2ccccc21 (stereo not given) in the records?
OUTPUT: -6.1

INPUT: Which value of growth inhibition has been reported for COc1cc2c(=O)[nH]c3cc(N)ccc3c2cc1N in the records?
OUTPUT: 9.6

INPUT: Which value of growth inhibition has been reported for CCCCC(OC(=O)c1ccccc1)c1cc(OC(=O)c2ccccc2)c2c(c1OC(=O)c1ccccc1)CC(C)=C(C)C2 (stereo not given) in the records?
OUTPUT: 84

INPUT: Which value of growth inhibition has been reported for CN(/C(=N/C(=S)NCc1ccccc1)SCc1ccccc1)c1ccccc1 in the records?
OUTPUT: 38

INPUT: Which value of growth inhibition has been reported for Cc1nc(CO)c(-c2ccc([N+](=O)[O-])cc2)o1 in the records?
OUTPUT: 0.4

INPUT: Which value of growth inhibition has been reported for CC1OC(n2cnc3c(NC(=O)c4ccccc4)ncnc32)C(O)C2OC12 (stereo not given) in the records?
OUTPUT: -1.15
